experimental target: ANXA11 Nt (UniProt P50995 1-191)
Sequence (P50995 1-191): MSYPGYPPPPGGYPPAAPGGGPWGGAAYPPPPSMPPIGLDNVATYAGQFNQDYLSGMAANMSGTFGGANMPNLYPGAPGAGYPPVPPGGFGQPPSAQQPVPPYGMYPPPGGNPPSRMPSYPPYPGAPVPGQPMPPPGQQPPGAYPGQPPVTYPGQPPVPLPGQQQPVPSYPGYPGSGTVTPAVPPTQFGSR
method: MST
assay metric: pKd
Numbers only, as −log10 of the molar value.

Query: Fill in: pKd of UUUUUUUUUU (ssRNA) [poly-U 10-mer RNA] is ___
Result: 5.38
